- TARGET OF ASSAY: guinea-pig B2 receptor (Cavia porcellus, UniProt O70526)
- Construct: Ileum segments are isolated from male guinea-pigs; tissue Iffa Credo, l'Arbresle, France (animals); host or cells: ileum membranes of male Dunkin-Hartley guinea-pigs
- Sequence (O70526 1-372): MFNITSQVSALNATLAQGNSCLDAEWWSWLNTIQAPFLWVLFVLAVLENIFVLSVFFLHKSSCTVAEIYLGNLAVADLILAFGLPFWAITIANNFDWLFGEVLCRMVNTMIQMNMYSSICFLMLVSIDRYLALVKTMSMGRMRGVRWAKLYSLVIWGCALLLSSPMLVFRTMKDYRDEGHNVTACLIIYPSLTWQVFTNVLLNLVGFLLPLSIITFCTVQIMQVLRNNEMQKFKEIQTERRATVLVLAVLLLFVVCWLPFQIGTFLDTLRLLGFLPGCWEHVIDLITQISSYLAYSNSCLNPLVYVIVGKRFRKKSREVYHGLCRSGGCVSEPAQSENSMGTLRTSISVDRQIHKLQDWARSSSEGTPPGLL
- EXPERIMENT NOTES: Inhibition of [3H]-bradykinin binding to guinea-pig ileum membranes
- RUN PARAMETERS: test compound at 10^-6 M, [3H]-bradykinin 120 pM, 90 min at 20° C., read-out: Activity (percentage inhibition of the binding of [3H]-bradykinin)
Structures can show the parent of a compound that is named as a salt.
PARAMETER: inhibition at 1 µM (%)

| COMPOUND | PARAMETER | RECORDED VALUE |
| --- | --- | --- |
| Cc1cc(C)c2cccc(OCc3c(Cl)ccc(S(=O)(=O)N4CCC[C@H]4C(=O)NCCNC(=O)COc4ccc(C(=N)N)cc4)c3Cl)c2n1 [Example 4, dihydrochloride] | inhibition at 1 µM | 95.5 |
| Cc1cc(C)c2cccc(OCc3c(Cl)ccc(S(=O)(=O)N4CCC[C@H]4C(=O)NCCCNC(=O)COc4ccc(C(=N)N)cc4)c3Cl)c2n1 [Example 10, dihydrochloride] | inhibition at 1 µM | 98.8 |
| Cc1cc(C)c2cccc(OCc3c(Cl)ccc(S(=O)(=O)N4CCC[C@H]4C(=O)NCCCNC(=O)Cc4ccc(C(=N)N)cc4)c3Cl)c2n1 [Example 8, dihydrochloride] | inhibition at 1 µM | 97.5 |
| Cc1cc(C)c2cccc(OCc3c(Cl)ccc(S(=O)(=O)N4CCC[C@H]4C(=O)NCCCN(C)C(=O)c4ccc(C(=N)N)cc4)c3Cl)c2n1 [Example 16, dihydrochloride] | inhibition at 1 µM | 100 |
| Cc1cc(C)c2cccc(OCc3c(Cl)ccc(S(=O)(=O)N4CCC[C@H]4C(=O)NCCCCNC(=O)c4ccc(C(=N)N)cc4)c3Cl)c2n1 [Example 19, dihydrochloride] | inhibition at 1 µM | 98 |
| Cc1cc(C)c2cccc(OCc3c(Cl)ccc(S(=O)(=O)N4CCC[C@H]4C(=O)NCCCNC(=O)c4ccc(C(=N)N)cc4)c3Cl)c2n1 [Example 6, dihydrochloride] | inhibition at 1 µM | 99 |
| Cc1cc(C)c2cccc(OCc3c(Cl)ccc(S(=O)(=O)N4CCC[C@H]4C(=O)NCCCCCNC(=O)c4ccc(C(=N)N)cc4)c3Cl)c2n1 [Example 21, dihydrochloride] | inhibition at 1 µM | 100 |
| Cc1cc(C)c2cccc(OCc3c(Cl)ccc(S(=O)(=O)N4CCC[C@H]4C(=O)NCCNC(=O)c4ccc(C(=N)N)cc4)c3Cl)c2n1 [Example 2, dihydrochloride] | inhibition at 1 µM | 92 |
| CCN(CCCNC(=O)[C@@H]1CCCN1S(=O)(=O)c1ccc(Cl)c(COc2cccc3c(C)cc(C)nc23)c1Cl)C(=O)c1ccc(C(=N)N)cc1 [Example 14, dihydrochloride] | inhibition at 1 µM | 97 |
